- Test system: L. amazonensis promastigotes
- assay_method_text: alamarBlue assay on L. amazonensis promastigotes
- Format: cell-based, Leishmania amazonensis
- recorded_conditions: Leishmania amazonensis; promastigotes, alamarBlue, 72 h at 26 °C; mean ± SD, triplicates; read-out: L. amazonensis Promastigote IC50
property: pIC50
Give bare numbers, as −log10 of the molar value.

Lookup: // pIC50 lookup, key: Cc1ccc(C(C)C)c(OC(=O)CCl)c1 [Derivative 3, thymyl chloroacetate]
Found: 4.10

----------
So I've got a bunch of molecules here, and I need their selectivity ratio values.
- assay_method_text: alamarBlue assay on L. amazonensis promastigotes
- Format: cell-based, Leishmania amazonensis
- recorded_conditions: mouse; CC50 J774.A1 / IC50 L. amazonensis promastigotes; read-out: Selectivity Leishmania SI (CC50/IC50)

Examples with answers:
>  <molecule>
Cc1ccc(C(C)C)c(OC(=O)c2ccccc2)c1 [Derivative 7, thymyl benzoate]

>  <selectivity ratio>
> 5.4

$$$$
>  <molecule>
Cc1ccc(C(C)C)c(O)c1 [Compound 1, thymol]

>  <selectivity ratio>
> 0.9

$$$$
>  <molecule>
CCCCCCCCCCCCCCCCOP(=O)([O-])OCC[N+](C)(C)C [M, Miltefosine, reference compound]

>  <selectivity ratio>
11.1

$$$$
>  <molecule>
Cc1ccc(C(C)C)c(OC(=O)c2ccccn2)c1 [Derivative 10, thymyl picolinate]

>  <selectivity ratio>
7.4

$$$$
>  <molecule>
CCCC(=O)Oc1cc(C)ccc1C(C)C [Derivative 5, thymyl butyrate]

>  <selectivity ratio>
> 1.4

$$$$
>  <molecule>
Cc1ccc(C(C)C)c(OCC(=O)OC(=O)CCl)c1 [Derivative 4, 2-thymyl-2′-(chloro)-acetic anhydride]

>  <selectivity ratio>
0.8

$$$$

Give me selectivity ratio for each of these molecules, listed below.
1. Cc1ccc(C(C)C)c(OC(=O)Oc2ccc([N+](=O)[O-])cc2)c1 [Derivative 11, thymyl-4-nitrophenylcarbonate]
2. Cc1ccc(C(C)C)c(OC(=O)CCl)c1 [Derivative 3, thymyl chloroacetate]

Found:
1: > 5.2; 2: > 3.8

----------
- assay_method_text: Cytotoxicity assay on murine macrophages (alamarBlue)
- Format: cell-based
- recorded_conditions: mouse, J774.A1 macrophage cell line, mean ± SD
So I've got a bunch of compounds here, and I need their CC50 values.

>  <compound>
Cc1ccc(C(C)C)c(OC(=O)c2ccc([N+](=O)[O-])cc2)c1 [Derivative 8, thymyl-4-nitrobenzoate]

>  <CC50>
> 300 µM

$$$$

Give me CC50 for each of these compounds, listed below.
1. CCCCCCCCCCCCCCCCOP(=O)([O-])OCC[N+](C)(C)C [M, Miltefosine, reference compound]
2. Cc1ccc(C(C)C)c(OC(=O)Oc2ccc([N+](=O)[O-])cc2)c1 [Derivative 11, thymyl-4-nitrophenylcarbonate]
3. CCCC(=O)Oc1cc(C)ccc1C(C)C [Derivative 5, thymyl butyrate]
4. Cc1ccc(C(C)C)c(OC(=O)c2ccccn2)c1 [Derivative 10, thymyl picolinate]
5. COc1ccc(C(=O)Oc2cc(C)ccc2C(C)C)cc1 [Derivative 9, thymyl anysoate]

Found:
1. 72.2 µM
2. > 300 µM
3. > 300 µM
4. 254 µM
5. > 300 µM

Give me CC50 for each of these compounds, listed below.
1. Cc1ccc(C(C)C)c(OCC(=O)OC(=O)CCl)c1 [Derivative 4, 2-thymyl-2′-(chloro)-acetic anhydride]
2. Cc1ccc(C(C)C)c(OC(=O)c2ccccc2)c1 [Derivative 7, thymyl benzoate]
3. Cc1ccc(C(C)C)c(O)c1

Found:
["121 µM", "> 300 µM", "> 300 µM"]

Lookup: // CC50 lookup, key: O=C(Cn1ccnc1[N+](=O)[O-])NCc1ccccc1 [B, Benznidazole, reference compound]
Found: 400 µM

----------
- assay_method_text: Cytotoxicity assay on murine macrophages (alamarBlue)
- Assay type: cell-based
- recorded_conditions: mouse; murine macrophages J774.A1; mean ± SD
So I've got a bunch of compounds here, and I need their CC50 values.

>  <compound>
Cc1ccc(C(C)C)c(OC(=O)CCl)c1 [Derivative 3, thymyl chloroacetate]

>  <CC50>
> 300 µM

$$$$

Shift focus to the following entry.
Lookup: // CC50 lookup, key: Cc1ccc(C(C)C)c(OC(=O)N(C)C)c1 [Derivative 12, thymyl N,N-dimethyl carbamate]
Found: > 300 µM

----------
- assay_method_text: alamarBlue assay on T. cruzi epimastigotes
- Type: cell-based, Trypanosoma cruzi
- recorded_conditions: mouse; CC50 J774.A1 / IC50 T. cruzi epimastigotes; read-out: Selectivity Trypanosoma SI (CC50/IC50)
- Protocol: In a 96-well plate, a serial dilution of the tested derivatives was performed in liver infusion tryptose medium supplemented with 10% heat inactivated fetal bovine serum. Later, 100 µL of 5 × 10^5 cells/mL of epimastigotes was added to each well. Afterwards, 20 µL of alamarBlue® was added to each well, and the plate was maintained at 26 °C for 72 h. […]
So I've got a bunch of molecules here, and I need their selectivity ratio values.

Examples with answers:
>  <molecule>
Cc1ccc(C(C)C)c(OC(=O)c2ccccc2)c1 [Derivative 7, thymyl benzoate]

>  <selectivity ratio>
> 4.5

$$$$
>  <molecule>
O=C(Cn1ccnc1[N+](=O)[O-])NCc1ccccc1 [B, Benznidazole, reference compound]

>  <selectivity ratio>
58

$$$$
>  <molecule>
Cc1ccc(C(C)C)c(OC(=O)N(C)C)c1 [Derivative 12, thymyl N,N-dimethyl carbamate]

>  <selectivity ratio>
> 1.9

$$$$
>  <molecule>
Cc1ccc(C(C)C)c(O)c1

>  <selectivity ratio>
> 1.5

$$$$
>  <molecule>
Cc1ccc(C(C)C)c(OC(=O)Oc2ccc([N+](=O)[O-])cc2)c1 [Derivative 11, thymyl-4-nitrophenylcarbonate]

>  <selectivity ratio>
> 4.5

$$$$

Give me selectivity ratio for each of these molecules, listed below.
1. Cc1ccc(C(C)C)c(OC(=O)c2ccccn2)c1 [Derivative 10, thymyl picolinate]
2. Cc1ccc(C(C)C)c(OC(=O)CCl)c1 [Derivative 3, thymyl chloroacetate]
3. COc1ccc(C(=O)Oc2cc(C)ccc2C(C)C)cc1 [Derivative 9, thymyl anysoate]

Found:
1: 7.2; 2: > 6.1; 3: > 11.2

Give me selectivity ratio for each of these molecules, listed below.
1. CCCC(=O)Oc1cc(C)ccc1C(C)C [Derivative 5, thymyl butyrate]
2. Cc1ccc(C(C)C)c(OCC(=O)OC(=O)CCl)c1 [Derivative 4, 2-thymyl-2′-(chloro)-acetic anhydride]
3. Cc1ccc(C(C)C)c(OC(=O)c2ccc([N+](=O)[O-])cc2)c1 [Derivative 8, thymyl-4-nitrobenzoate]

Found:
> 1.4
0.9
> 6.8

----------
- Tested on: T. cruzi epimastigotes
- assay_method_text: alamarBlue assay on T. cruzi epimastigotes
- Format: cell-based, Trypanosoma cruzi
- recorded_conditions: read-out: T. cruzi Epimastigote IC50; epimastigotes, alamarBlue, 72 h at 26 °C; mean ± SD, triplicates
property: pIC50
Numbers only, as −log10 of the molar value.

Lookup: // pIC50 lookup, key: Cc1ccc(C(C)C)c(OC(=O)N(C)C)c1 [Derivative 12, thymyl N,N-dimethyl carbamate]
Found: 3.80

----------
- System: intramacrophage L. amazonensis
- assay_method_text: Intramacrophagic stage assay, L. amazonensis in J774.A1 macrophages
- Type: cell-based, Leishmania amazonensis
- recorded_conditions: Leishmania amazonensis; intramacrophage stage in J774.A1, 24 h treatment; mean ± SD; read-out: L. amazonensis Intracellular IC50
property: pIC50
Give bare numbers, as −log10 of the molar value.

Examples with answers:
>  <compound>
COc1ccc(C(=O)Oc2cc(C)ccc2C(C)C)cc1 [Derivative 9, thymyl anysoate]

>  <pIC50>
4.82

$$$$
>  <compound>
Cc1ccc(C(C)C)c(OC(=O)c2ccccn2)c1 [Derivative 10, thymyl picolinate]

>  <pIC50>
4.60

$$$$

Shift focus to the following entry.
Lookup: // pIC50 lookup, key: CCCCCCCCCCCCCCCCOP(=O)([O-])OCC[N+](C)(C)C [M, Miltefosine, reference compound]
Found: 5.51

----------
- assay_method_text: Intramacrophagic stage assay, L. amazonensis in J774.A1 macrophages
- Type: cell-based, Leishmania amazonensis
- recorded_conditions: mouse; CC50 J774.A1 / IC50 intracellular L. amazonensis; read-out: Selectivity Leishmania SI (CC50/IC50)
So I've got a bunch of molecules here, and I need their selectivity ratio values.
Give bare numbers.

>  <molecule>
Cc1ccc(C(C)C)c(OC(=O)c2ccccn2)c1 [Derivative 10, thymyl picolinate]

>  <property>
selectivity ratio

>  <val>
10.1

$$$$

Lookup: // selectivity ratio lookup, key: CCCCCCCCCCCCCCCCOP(=O)([O-])OCC[N+](C)(C)C [M, Miltefosine, reference compound]
Found: 23.3
